Biological target: MAO-A (amine oxidase [flavin-containing] A) (Rattus norvegicus, UniProt P21396)
Sequence (P21396 whole entry): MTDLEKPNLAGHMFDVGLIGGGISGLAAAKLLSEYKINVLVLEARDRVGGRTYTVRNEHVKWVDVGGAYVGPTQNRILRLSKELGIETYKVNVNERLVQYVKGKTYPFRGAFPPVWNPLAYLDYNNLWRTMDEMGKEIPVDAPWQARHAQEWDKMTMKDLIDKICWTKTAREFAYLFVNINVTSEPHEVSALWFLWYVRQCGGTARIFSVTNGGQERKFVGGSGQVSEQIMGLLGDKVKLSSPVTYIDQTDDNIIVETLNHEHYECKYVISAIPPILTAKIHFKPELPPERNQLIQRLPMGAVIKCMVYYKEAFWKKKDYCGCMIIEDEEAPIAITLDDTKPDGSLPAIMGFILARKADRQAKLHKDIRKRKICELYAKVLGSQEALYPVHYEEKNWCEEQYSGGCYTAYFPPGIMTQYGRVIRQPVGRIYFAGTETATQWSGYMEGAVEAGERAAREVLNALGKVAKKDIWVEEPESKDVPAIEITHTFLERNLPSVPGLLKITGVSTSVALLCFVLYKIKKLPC
Assay: Inhibition of Sprague-Dawley rat MAO-A using Kynuramine as substrate assessed as formation of 4-hydroxyquinoline at 10 uM preincubated for 5 mins prior to substrate addition measured for 5 mins by spectrophotometry
Conditions: rat MAO-A enzyme preparation, probe kynuramine
Where inhibition at 5 min, 10 µM equals or exceeds 9%, the correct label is true (1); where it does not, the label is false (0).

NC(=O)c1cc(=O)oc2cc(OCc3cccc(Cl)c3)ccc12 | true (1)
O=c1cc(Oc2ccccc2)c2ccc(OCc3cccc(Cl)c3)cc2o1 | false (0)
CC(=O)c1cc(=O)oc2cc(OCc3cccc(Cl)c3)ccc12 | false (0)
O=c1cc(Nc2ccccc2)c2ccc(OCc3cccc(Cl)c3)cc2o1 | false (0)
CCNC(=O)Nc1cc(=O)oc2cc(OCc3cccc(Cl)c3)ccc12 | false (0)
N#CCOc1cc(=O)oc2cc(OCc3cccc(Cl)c3)ccc12 | true (1)
CCOc1cc(=O)oc2cc(OCc3cccc(F)c3)ccc12 | true (1)
CCOc1cc(=O)oc2cc(OCc3cccc(Cl)c3)ccc12 | false (0)
O=c1cc(O)c2ccc(OCc3cccc(Cl)c3)cc2o1 | false (0)
CC(O)c1cc(=O)oc2cc(OCc3cccc(Cl)c3)ccc12 (stereo unspecified) | true (1)
CC(=O)COc1cc(=O)oc2cc(OCc3cccc(Cl)c3)ccc12 | true (1)
CCOC(=O)c1cc(=O)oc2cc(OCc3cccc(Cl)c3)ccc12 | false (0)
O=c1cc(O)c2ccc(OCc3cccc(F)c3)cc2o1 | false (0)
CCCOc1cc(=O)oc2cc(OCc3cccc(Cl)c3)ccc12 | false (0)
CN(C)C(=O)COc1cc(=O)oc2cc(OCc3cccc(Cl)c3)ccc12 | true (1)
